# Experiment Summary: circular dichroism
# Stated Conditions: 50 mM sodium phosphate (stated for FIG. 5; assumed for the rest); pH 8.0; ns °C
Bridge positions count the residues as written; N and C are the ends. Square brackets hold non-standard residues; d marks the D form. Peptide text beside a SMILES is read from it. S8 = C=CCCCCCC[C@](C)(N)C(=O)O; R5 = C=CCCC[C@@](C)(N)C(=O)O
Lab note: compare helicity with 70%, writing true if less and false if equal or more.

>  <Molecule>
CC(=O)N1CCC[C@]12CC=CC[C@@](C)(C(=O)N[C@@H](CCCCN)C(=O)N[C@@H](CCCNC(=N)N)C(=O)N[C@@H](C)C(=O)N[C@@H](CCCNC(=N)N)C(=O)N[C@@H](CC(N)=O)C(=O)N[C@H](C(=O)N[C@@H](CCC(=O)O)C(=O)N[C@]1(C)CCCC=CCNC(=O)[C@H](Cc3c[nH]c4ccccc34)NC(=O)[C@H](C)NC1=O)[C@@H](C)O)NC(=O)[C@H](C)NC(=O)[C@H](C)NC2=O

>  <Assigned Category>
false

$$$$
>  <Molecule>
CC(=O)N[C@]1(C)CCCC=CCCCCCC[C@@](C)(C(=O)N[C@@H](CC(N)=O)C(=O)N[C@H](C(=O)N[C@@H](CCC(=O)O)C(=O)N[C@@H](C)C(=O)N[C@@H](C)C(=O)N[C@@H](Cc2c[nH]c3ccccc23)C(N)=O)[C@@H](C)O)NC(=O)[C@H](C)NC(=O)[C@H](CCCNC(=N)N)NC(=O)[C@H](CCCCN)NC(=O)[C@H](CC(C)C)NC(=O)[C@H](C)NC(=O)[C@H](C)NC1=O (Ac-[R5]AALKRA[S8]NTEAAW-NH2; staple 1-8)

>  <Assigned Category>
true

$$$$
>  <Molecule>
CC(=O)N1CCC[C@]12CC=CCCCC1(CCCC=CCCCCCC[C@@](C)(C(=O)N[C@@H](C)C(=O)N[C@@H](C)C(=O)N[C@@H](Cc3c[nH]c4ccccc34)C(N)=O)NC(=O)[C@H]([C@@H](C)O)NC(=O)[C@H](CC(N)=O)NC(=O)[C@H](CCCNC(=N)N)NC(=O)[C@H](C)NC(=O)[C@H](CCCNC(=N)N)NC(=O)[C@H](CCCCN)NC1=O)NC(=O)[C@H](C)NC(=O)[C@H](C)NC2=O (some centres unmarked)

>  <Assigned Category>
false

$$$$
